Protocol summary: Plasma stability, human plasma
Format: in vitro ADME
Protocol conditions: 37° C., remaining parent compound, read-out: Plasma stability (% recovery after 6 h), Human
For each entry below, report its recovery at 6 h, 50 μM value.
Use % as the unit, but write only the number.

Consider the compound Cl.O=S(=O)(NCCN1CCNCC1)c1ccc(NC2CCCCC2)c(NCc2ccccc2)c1 [Compound 39, Hydrochloride] and give its measured recovery at 6 h, 50 μM.
84.2

And Cl.NCCNS(=O)(=O)c1ccc(NC2CCCCC2)c(NCc2ccccc2)c1 [Compound 38, Hydrochloride] ?
100

And CNCCNS(=O)(=O)c1ccc(NC2CCCCC2)c(NCc2ccccc2)c1.Cl [Compound 37, Hydrochloride] ?
90.3

And O=S(=O)(NCCN1CCOCC1)c1ccc(NC2CCCCC2)c(NCc2ccccc2)c1 ?
100

All figures here come from patent US11339124B2.
